# assay_notes: Cell Viability - H-4-II-E (AID 543);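 note: cells exposed to compound for 40 hours; nearly all actives have a fitted effect of over 35% in size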
# measurement_parameters: H-4-II-E rat hepatoma viability; series mostly up to 92.2 µM
Inconclusive results are not listed. Activity calls are given as the source filed them. Calls come from the whole dose curve; as a rule, active = well fitted cell-killing curve with a large enough effect; inconclusive = small, poorly fitted or top-dose-only effect; inactive = flat fitted curve, though single readings scatter.
// classify into t for active, f for inactive

smiles_repr | discrete_label
Oc1c(Cl)cc(Cl)c(Cl)c1Cc1c(O)c(Cl)cc(Cl)c1Cl | t
C/C=C/c1ccc(O)c(OC)c1 | f
CCOc1ccccc1C(N)=O | f

Proceed to the following item.
For CCCN(CCC)S(=O)(=O)c1ccc(C(=O)O)cc1 , what call appears in the results of this test?
f

====

# Tested on: CP215
# assay_notes: qHTS profiling for inhibitors of Plasmodium falciparum proliferation (AID 504749); note: nearly all actives have a fitted effect of over 60% in size; note: potency is the fitted concentration of half-maximal effect
# measurement_parameters: P. falciparum in erythrocytes, SYBR Green DNA, 72 h; series mostly up to 28.7 µM
Results filed as inconclusive are left out. Calls of active or inactive are those of the source. The call rests on the fitted dose curve; in most records, active means well fitted inhibition curve with a large enough effect; inconclusive means small, poorly fitted or top-dose-only effect; inactive means flat fitted curve, though single readings scatter.
endpoint_name: Potency

Some solved entries appear below for comparison.
molecule | tested_system | Potency
N/C(=N\N=C\c1ccc(Cl)cc1)N/N=C/c1ccc(Cl)cc1 | CP215 | inactive
CCOC(=O)c1ccc(N)cc1 | CP215 | inactive
CC(=O)Nc1ccc(S(=O)(=O)Nc2ccc([N+](=O)[O-])cc2)cc1 | CP215 | inactive
CCCCCCCCNC(C)C(O)c1ccc(SC(C)C)cc1 (centres undefined) | CP215 | 1690 nM (active)
COP(=O)(OC)OC(c1ccc(Cl)cc1)P(=O)(OC)OC (centres undefined) | CP215 | inactive

Record Cc1c(-c2ccccc2)oc2c(C(=O)OCCN3CCCCC3)cccc2c1=O has CP215 Potency equal to inactive
